# measurement_target: Rat H3 (Rattus norvegicus)
# Sequence (Q9QYN8 whole entry): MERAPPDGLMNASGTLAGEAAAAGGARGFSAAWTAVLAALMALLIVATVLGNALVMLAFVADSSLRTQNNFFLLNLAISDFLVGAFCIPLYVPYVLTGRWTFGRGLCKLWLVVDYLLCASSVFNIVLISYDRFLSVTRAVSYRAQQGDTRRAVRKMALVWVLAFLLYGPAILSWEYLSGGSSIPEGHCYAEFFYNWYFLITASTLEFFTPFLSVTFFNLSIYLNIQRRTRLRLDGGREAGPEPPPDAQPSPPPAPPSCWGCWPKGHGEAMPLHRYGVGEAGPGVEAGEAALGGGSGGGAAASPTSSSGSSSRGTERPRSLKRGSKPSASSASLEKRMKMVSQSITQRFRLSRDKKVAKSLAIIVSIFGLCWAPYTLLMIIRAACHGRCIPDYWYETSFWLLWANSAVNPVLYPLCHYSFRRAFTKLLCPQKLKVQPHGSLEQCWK
Structures can show the parent of a compound that is named as a salt.

- compound: "C[C@H]1CCCN1[C@H]1CCN(c2ccc(C(=O)NCC3CCOCC3)cc2)C1"
  Ki / nM: 19.1
- compound: "CNC(=O)C1CCN(Cc2ccc(N3CC[C@H](N4CCC[C@@H]4C)C3)cc2)CC1 [Example 10, hydrochloride]"
  Ki / nM: 0.929
- compound: "CCOC(=O)N1CCC(NC(=O)Cc2ccc(N3CC[C@H](N4CCC[C@@H]4C)C3)cc2)CC1"
  Ki / nM: 8.25
- compound: "C[C@H]1CCCN1[C@H]1CCN(c2ccc(C(=O)NC3CCOCC3)cc2)C1"
  Ki / nM: 15
- compound: "C[C@H]1CCCN1[C@H]1CCN(c2ccc3cc(C(=O)NC4CCOCC4)ccc3c2)C1"
  Ki / nM: 9.79
- compound: "C[C@H]1CCCN1[C@H]1CCN(c2ccc(CC(=O)NC3CCNCC3)cc2)C1 [Example 7, hydrochloride]"
  Ki / nM: 1.12

---

Here, each record is paired with measured pKi data.
# measurement_target: Mouse H3 (Mus musculus)
# Sequence (P58406 whole entry): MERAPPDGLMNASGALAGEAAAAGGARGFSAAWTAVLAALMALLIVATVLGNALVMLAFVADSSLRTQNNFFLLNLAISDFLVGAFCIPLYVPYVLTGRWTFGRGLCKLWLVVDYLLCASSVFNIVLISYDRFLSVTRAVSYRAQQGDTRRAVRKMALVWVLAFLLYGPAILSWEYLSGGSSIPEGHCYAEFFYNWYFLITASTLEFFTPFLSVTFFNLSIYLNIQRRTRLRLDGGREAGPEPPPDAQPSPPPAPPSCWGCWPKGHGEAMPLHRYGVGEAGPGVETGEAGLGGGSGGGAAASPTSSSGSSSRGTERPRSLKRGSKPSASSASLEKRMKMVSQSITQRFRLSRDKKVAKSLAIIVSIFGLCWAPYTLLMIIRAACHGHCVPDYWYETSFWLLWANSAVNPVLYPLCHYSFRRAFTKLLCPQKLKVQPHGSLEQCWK
pKi: −log10 of the molar value. Where a name gives a salt, the structure may show the parent alone.

- molecule: "CNC(=O)C1CCN(Cc2ccc(N3CC[C@H](N4CCC[C@@H]4C)C3)cc2)CC1 [Example 10, hydrochloride]"
  measurement_target: "Mouse H3 (Mus musculus)"
  pKi: 8.36
- molecule: "Cc1cc(N2CC[C@H](N3CCC[C@@H]3C)C2)ccc1C(=O)NC1CCOCC1"
  measurement_target: "Mouse H3 (Mus musculus)"
  pKi: 7.92
- molecule: "C[C@H]1CCCN1[C@H]1CCN(c2ccc(C(=O)NC3CCOCC3)cc2)C1"
  measurement_target: "Mouse H3 (Mus musculus)"
  pKi: 8.00
- molecule: "C[C@H]1CCCN1[C@H]1CCN(c2ccc3cc(C(=O)NC4CCOCC4)ccc3c2)C1"
  measurement_target: "Mouse H3 (Mus musculus)"
  pKi: 7.71

---

# measurement_target: rhesus (Macacca Mulatta) H3 receptor (Macaca mulatta, UniProt Q865E1)
# Construct: pcDNA5/FRT/TO (Invitrogen) containing the rhesus monkey (Macacca Mulatta) 445 amino acid H3 receptor
# Sequence (Q865E1 1-445): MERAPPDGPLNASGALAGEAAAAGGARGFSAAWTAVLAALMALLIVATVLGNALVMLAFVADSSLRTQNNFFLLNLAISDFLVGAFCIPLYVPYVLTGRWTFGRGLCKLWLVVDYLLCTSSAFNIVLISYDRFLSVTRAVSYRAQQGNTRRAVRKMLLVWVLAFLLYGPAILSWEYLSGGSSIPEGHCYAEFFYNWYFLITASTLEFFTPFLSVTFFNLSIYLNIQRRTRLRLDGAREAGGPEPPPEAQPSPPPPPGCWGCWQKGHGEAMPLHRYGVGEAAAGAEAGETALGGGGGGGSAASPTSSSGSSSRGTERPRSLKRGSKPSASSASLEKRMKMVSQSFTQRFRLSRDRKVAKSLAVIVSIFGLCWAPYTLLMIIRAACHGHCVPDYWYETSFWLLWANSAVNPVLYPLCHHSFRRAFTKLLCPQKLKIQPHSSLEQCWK
# method: Rhesus H3 [3H]-Methylhistamine radioligand binding assay
# Set-up: species or system rhesus monkey (Macacca Mulatta)
# experimental_setup: displacement of [3H]-Methylhistamine (2 nM), rhesus H3 membranes, Cheng-Prusoff
Structures can show the parent of a compound that is named as a salt.
Could you please mark Y for values of Ki below 0.8 nM and N for values at or above it?

- compound: "C[C@H]1CCCN1[C@H]1CCN(c2ccc(CC(=O)NC3CCN(C(=O)OC(C)(C)C)CC3)cc2)C1"
  cat: "N"
- compound: "CNC(=O)C1CCN(Cc2ccc(N3CC[C@H](N4CCC[C@@H]4C)C3)cc2)CC1 [Example 10, hydrochloride]"
  cat: "Y"
- compound: "C[C@H]1CCCN1[C@H]1CCN(c2ccc(CC(=O)NC3CCN(CC4CCCC4)CC3)cc2)C1"
  cat: "Y"
- compound: "C[C@H]1CCCN1[C@H]1CCN(c2ccc(CC(=O)NC3CCOCC3)cc2)C1"
  cat: "N"
- compound: "CCOC(=O)N1CCC(NC(=O)Cc2ccc(N3CC[C@H](N4CCC[C@@H]4C)C3)cc2)CC1"
  cat: "N"
- compound: "C[C@H]1CCCN1[C@H]1CCN(c2ccc(C(=O)NC3CCOCC3)cc2)C1"
  cat: "N"

Source: patent US8754095B2
